Entry source: patent US20070117743A1

Quick reference for TGI HT-29 among some molecules
System: HT-29
TEST_DESCRIPTION: SRB colorimetric assay of cell growth and viability, HT-29
Format: cell-based, human
MEASUREMENT_SETUP: 48 hours exposure
Where a SMILES comes first, the peptide text is derived from it. Bridges are numbered along the chain shown (N, C = ends). [ ]: non-standard residue; d: D form. The star is where a group is joined. d(aIle) = CC[C@H](C)[C@@H](N)C(=O)O; d(aThr) = C[C@@H](O)[C@@H](N)C(=O)O; Hexanoyl(5-Me) = CC(C)CCCC(=O)*; Orn = NCCC[C@H](N)C(=O)O; Dhb = C/C=C(\N)C(=O)O
RECORDED_ENDPOINT: TGI HT-29

1. C/C=C1\NC(=O)[C@H](Cc2ccccc2)NC(=O)[C@@H](C(C)C)NC(=O)[C@@H]([C@@H](C)CC)NC(=O)[C@H](NC(=O)[C@H](NC(=O)[C@H](CCCN)NC(=O)[C@H]2CCCN2C(=O)[C@H](NC(=O)CNC(=O)[C@@H](NC(=O)[C@H](NC(=O)CCCC(C)C)C(C)C)[C@@H](C)O)C(C)C)[C@@H](C)CC)[C@@H](C)OC(=O)[C@H](C(C)C)NC1=O [Compound 42, [Gly^11]-KF] ({Hexanoyl(5-Me)}-[dV]TG[dV][dP][Orn][d(aIle)][d(aThr)][d(aIle)][dV]F[Dhb]V; ester 8-C)    6.96E−06 Molar
2. C/C=C1\NC(=O)[C@H](Cc2ccccc2)NC(=O)[C@@H](C(C)C)NC(=O)[C@@H]([C@@H](C)CC)NC(=O)[C@H](NC(=O)[C@H](NC(=O)[C@H](CCCN)NC(=O)[C@H]2CCCN2C(=O)[C@H](NC(=O)[C@@H]2CCCN2C(=O)[C@@H](NC(=O)[C@H](NC(=O)CCCC(C)C)C(C)C)[C@@H](C)O)C(C)C)[C@@H](C)CC)[C@@H](C)OC(=O)[C@H](C(C)C)NC1=O [Compound 47, [Pro^11]-KF] ({Hexanoyl(5-Me)}-[dV]TP[dV][dP][Orn][d(aIle)][d(aThr)][d(aIle)][dV]F[Dhb]V; ester 8-C)    6.78E−06 Molar

---

Tested on: IGROV-ET
TEST_DESCRIPTION: SRB colorimetric assay of cell growth and viability, IGROV-ET
Type: cell-based, human
MEASUREMENT_SETUP: 48 hours exposure
Where a SMILES comes first, the peptide text is derived from it. Bridges are numbered along the chain shown (N, C = ends). [ ]: non-standard residue; d: D form. The star is where a group is joined. d(aIle) = CC[C@H](C)[C@@H](N)C(=O)O; d(aThr) = C[C@@H](O)[C@@H](N)C(=O)O; Hexanoyl(5-Me) = CC(C)CCCC(=O)*; Orn = NCCC[C@H](N)C(=O)O; Dhb = C/C=C(\N)C(=O)O
RECORDED_ENDPOINT: GI50 (nM)

1. C/C=C1\NC(=O)[C@H](Cc2ccccc2)NC(=O)[C@@H](C(C)C)NC(=O)[C@@H]([C@@H](C)CC)NC(=O)[C@H](NC(=O)[C@H](NC(=O)[C@H](CCCN)NC(=O)[C@H]2CCCN2C(=O)[C@H](NC(=O)[C@@H](NC(=O)[C@H](CC(C)C)NC(=O)CCCC(C)C)C(C)C)C(C)C)[C@@H](C)CC)[C@@H](C)OC(=O)[C@H](C(C)C)NC1=O [Compound 54, [Leu^12, noD-Val^13]-KF] ({Hexanoyl(5-Me)}-LV[dV][dP][Orn][d(aIle)][d(aThr)][d(aIle)][dV]F[Dhb]V; ester 7-C)    1450
2. C/C=C1\NC(=O)[C@H](Cc2ccccc2)NC(=O)[C@@H](C(C)C)NC(=O)[C@@H]([C@@H](C)CC)NC(=O)[C@H](NC(=O)[C@H](NC(=O)[C@H](CCCN)NC(=O)[C@H]2CCCN2C(=O)[C@H](NC(=O)[C@@H](NC(=O)[C@@H](NC(=O)[C@H](NC(=O)CCCCCCCCCCCCCCCCCCC)C(C)C)[C@@H](C)O)C(C)C)C(C)C)[C@@H](C)CC)[C@@H](C)OC(=O)[C@H](C(C)C)NC1=O [Compound 13, [Icos^14]-KF]    1660
3. C/C=C1\NC(=O)[C@H](Cc2ccccc2)NC(=O)[C@@H](C(C)C)NC(=O)[C@@H]([C@@H](C)CC)NC(=O)[C@H](NC(=O)[C@H](NC(=O)[C@H](CCCN)NC(=O)[C@H]2CCCN2C(=O)[C@H](NC(=O)[C@@H]2CCCN2C(=O)[C@@H](NC(=O)[C@H](NC(=O)CCCC(C)C)C(C)C)[C@@H](C)O)C(C)C)[C@@H](C)CC)[C@@H](C)OC(=O)[C@H](C(C)C)NC1=O [Compound 47, [Pro^11]-KF] ({Hexanoyl(5-Me)}-[dV]TP[dV][dP][Orn][d(aIle)][d(aThr)][d(aIle)][dV]F[Dhb]V; ester 8-C)    6780
4. C/C=C1\NC(=O)[C@H](Cc2ccccc2)NC(=O)[C@@H](C(C)C)NC(=O)[C@@H]([C@@H](C)CC)NC(=O)[C@H](NC(=O)[C@H](NC(=O)[C@H](CCCN)NC(=O)[C@H]2CCCN2C(=O)[C@H](NC(=O)[C@@H](NC(=O)[C@@H](NC(=O)[C@H](NC(=O)CCCC(C)C)C(C)C)[C@@H](C)O)C(C)C)C(C)C)[C@@H](C)CC)[C@H](C)OC(=O)[C@H](C(C)C)NC1=O [Compound 2, [D-Thr^6]-KF]    1600
5. C/C=C1\NC(=O)[C@H](Cc2ccccc2)NC(=O)[C@@H](C(C)C)NC(=O)[C@@H]([C@@H](C)CC)NC(=O)[C@H](NC(=O)[C@H](NC(=O)[C@H](CCCN)NC(=O)[C@H]2CCCN2C(=O)[C@H](NC(=O)[C@@H](NC(=O)[C@@H](NC(=O)[C@H]2CCCN2C(=O)CCCC(C)C)[C@@H](C)O)C(C)C)C(C)C)[C@@H](C)CC)[C@@H](C)OC(=O)[C@H](C(C)C)NC1=O [Compound 37, [D-Pro^13]-KF]    1210

---

System: DU-145
TEST_DESCRIPTION: SRB colorimetric assay of cell growth and viability, DU-145
Type: cell-based, human
MEASUREMENT_SETUP: 48 hours exposure, SRB
Quick reference for GI50 among some compounds
RECORDED_ENDPOINT: GI50 (nM)

1) C/C=C1\NC(=O)[C@H](Cc2ccccc2)NC(=O)[C@@H](C(C)C)NC(=O)[C@@H]([C@@H](C)CC)NC(=O)[C@H](NC(=O)[C@H](NC(=O)[C@H](CCCNC(=O)CCCC[C@@H]2SC[C@@H]3NC(=O)N[C@@H]32)NC(=O)[C@H]2CCCN2C(=O)[C@H](NC(=O)[C@@H](NC(=O)[C@@H](NC(=O)[C@H](NC(=O)CCCC(C)C)C(C)C)[C@@H](C)O)C(C)C)C(C)C)[C@@H](C)CC)[C@@H](C)OC(=O)[C@H](C(C)C)NC1=O [Compound 99, [Orn(Biot)^8]-Kahalalide F]    757
2) C/C=C1\NC(=O)[C@H](Cc2ccc(F)cc2)NC(=O)[C@@H](C(C)C)NC(=O)[C@@H]([C@@H](C)CC)NC(=O)[C@H](NC(=O)[C@H](NC(=O)[C@H](CCCN)NC(=O)[C@H]2CCCN2C(=O)[C@H](NC(=O)[C@@H](NC(=O)[C@@H](NC(=O)[C@H](NC(=O)CC[C@@H](C)CC)C(C)C)[C@@H](C)O)C(C)C)C(C)C)[C@@H](C)CC)[C@@H](C)OC(=O)[C@H](C(C)C)NC1=O [Compound 74, [Phe(4-F)^3, (4S)-MeHex^14]-KF]    796

---

Quick reference for CC50 among some compounds
Test system: IGROV-ET
TEST_DESCRIPTION: SRB colorimetric assay of cell growth and viability, IGROV-ET
Format: cell-based, human
MEASUREMENT_SETUP: IGROV-ET; 48 hours exposure; read-out: LC50 IGROV-ET
Where a SMILES comes first, the peptide text is derived from it. Bridges are numbered along the chain shown (N, C = ends). [ ]: non-standard residue; d: D form. The star is where a group is joined. d(aIle) = CC[C@H](C)[C@@H](N)C(=O)O; d(aThr) = C[C@@H](O)[C@@H](N)C(=O)O; Hexanoyl(5-Me) = CC(C)CCCC(=O)*; Orn = NCCC[C@H](N)C(=O)O; Dhb = C/C=C(\N)C(=O)O
RECORDED_ENDPOINT: CC50 (nM)

1) C/C=C1\NC(=O)[C@H](Cc2ccccc2)NC(=O)[C@@H](C(C)C)NC(=O)[C@@H]([C@@H](C)CC)NC(=O)[C@H](NC(=O)[C@H](NC(=O)[C@H](CCCN)NC(=O)[C@H]2CCCN2C(=O)[C@H](NC(=O)[C@@H](NC(=O)[C@H](CCC(N)=O)NC(=O)[C@H](NC(=O)CCCC(C)C)C(C)C)C(C)C)C(C)C)[C@@H](C)CC)[C@@H](C)OC(=O)[C@H](C(C)C)NC1=O [Compound 119, [Gln^12]-KF] ({Hexanoyl(5-Me)}-[dV]QV[dV][dP][Orn][d(aIle)][d(aThr)][d(aIle)][dV]F[Dhb]V; ester 8-C)    1990
2) C/C=C1\NC(=O)[C@H](Cc2ccccc2Cl)NC(=O)[C@@H](C(C)C)NC(=O)[C@@H]([C@@H](C)CC)NC(=O)[C@H](NC(=O)[C@H](NC(=O)[C@H](CCCN)NC(=O)[C@H]2CCCN2C(=O)[C@H](NC(=O)[C@@H](NC(=O)[C@@H](NC(=O)[C@H](NC(=O)CCCC(C)C)C(C)C)[C@@H](C)O)C(C)C)C(C)C)[C@@H](C)CC)[C@@H](C)OC(=O)[C@H](C(C)C)NC1=O [Compound 81, [Phe(2-Cl)^3]-KF]    639
3) C/C=C1\NC(=O)[C@H](Cc2ccccc2)NC(=O)[C@@H](C(C)C)NC(=O)[C@@H]([C@@H](C)CC)NC(=O)[C@H](NC(=O)[C@H](NC(=O)[C@H](CCCN)NC(=O)[C@H]2CCCN2C(=O)[C@H](NC(=O)[C@@H](NC(=O)[C@H](CCC(=O)O)NC(=O)[C@H](NC(=O)CCCC(C)C)C(C)C)C(C)C)C(C)C)[C@@H](C)CC)[C@@H](C)OC(=O)[C@H](C(C)C)NC1=O [Compound 115, [Glu^12]-KF] ({Hexanoyl(5-Me)}-[dV]EV[dV][dP][Orn][d(aIle)][d(aThr)][d(aIle)][dV]F[Dhb]V; ester 8-C)    5830
